// data source = PubChem BioAssay AID1963960

Tested on: MDA-MB-468 spheroids with HUVEC/MSC, viability
Test: Anticancer human tumor MDA-MB-468 cell line growth inhibition [PI3K];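 also: spheroids exposed to agents for seven days before readout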
Conditions: curve of first compound; second compound 0.0316 µM
Text: Combinatorial screen of targeted agents with the PI3K inhibitors inavolisib, alpelisib, duvelisib, and copanlisib in multi-cell type tumor spheroids A high-throughput screen of multi-cell type tumor spheroids was designed to identify active combinations of targeted small molecules and PI3K pathway inhibitors. […] Compounds. […] If the clinical Cmax for an agent had not been determined, the highest concentration tested was 10 microM. […]

[
  {
    "compound": "Cn1ncnc1[C@H]1c2n[nH]c(=O)c3cc(F)cc(c23)N[C@@H]1c1ccc(F)cc1 + CC(Nc1ccc2c(c1)OCCn1cc(N3C(=O)OCC3C(F)F)nc1-2)C(N)=O",
    "system name": "MDA-MB-468 spheroids with HUVEC/MSC, viability",
    "IC50": "> 0.1 µM"
  },
  {
    "compound": "CC1(C)CCC(CN2CCN(c3ccc(C(=O)NS(=O)(=O)c4ccc(NCC5CCOCC5)c([N+](=O)[O-])c4)c(Oc4cnc5[nH]ccc5c4)c3)CC2)=C(c2ccc(Cl)cc2)C1 + Cc1nc(NC(=O)N2CCCC2C(N)=O)sc1-c1ccnc(C(C)(C)C(F)(F)F)c1",
    "system name": "MDA-MB-468 spheroids with HUVEC/MSC, viability",
    "IC50": "4.01 µM"
  },
  {
    "compound": "CNC(=O)c1ccc(N2C(=S)N(c3ccc(C#N)c(C(F)(F)F)c3)C(=O)C2(C)C)cc1F + CC(Nc1ccc2c(c1)OCCn1cc(N3C(=O)OCC3C(F)F)nc1-2)C(N)=O",
    "system name": "MDA-MB-468 spheroids with HUVEC/MSC, viability",
    "IC50": "> 10 µM"
  },
  {
    "compound": "CC(Cn1ccc(-c2ccc(C#N)c(Cl)c2)n1)NC(=O)c1cc(C(C)O)[nH]n1 (stereo not given) + CC(Nc1ncnc2nc[nH]c12)c1cc2cccc(Cl)c2c(=O)n1-c1ccccc1",
    "system name": "MDA-MB-468 spheroids with HUVEC/MSC, viability",
    "IC50": "> 10 µM"
  },
  {
    "compound": "CC1(C)CCC(Nc2ncc(C(F)(F)F)c(-c3c[nH]c4c(P(C)(C)=O)c(C#N)ccc34)n2)CN1 (stereo not given) + CC(Nc1ncnc2nc[nH]c12)c1cc2cccc(Cl)c2c(=O)n1-c1ccccc1",
    "system name": "MDA-MB-468 spheroids with HUVEC/MSC, viability",
    "IC50": "< 0.0316 µM"
  }
]

###

test system: MDA-MB-468 spheroids with HUVEC/MSC, viability; test: Anticancer human tumor MDA-MB-468 cell line growth inhibition [PI3K]; conditions: second compound 0.01 µM; first compound 0.000316 µM; stronger effect = lower value;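 also: spheroids exposed to agents for seven days before readout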;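 as to viability, T/C: 100% = DMSO vehicle control viability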
List of viability, T/C values.

[
  {
    "compound": "CC(C)n1nc(-c2ccc3oc(N)nc3c2)c2c(N)ncnc21 + CC(Nc1ccc2c(c1)OCCn1cc(N3C(=O)OCC3C(F)F)nc1-2)C(N)=O",
    "system name": "MDA-MB-468 spheroids with HUVEC/MSC, viability",
    "unit of measure": "%",
    "viability, T/C": 95.1
  },
  {
    "compound": "CC(C)n1nc(-c2ccc3oc(N)nc3c2)c2c(N)ncnc21 + COc1c(OCCCN2CCOCC2)ccc2c3n(c(=NC(=O)c4cnc(N)nc4)nc12)CCN3",
    "system name": "MDA-MB-468 spheroids with HUVEC/MSC, viability",
    "unit of measure": "%",
    "viability, T/C": 77.2
  },
  {
    "compound": "Cn1ncnc1[C@H]1c2n[nH]c(=O)c3cc(F)cc(c23)N[C@@H]1c1ccc(F)cc1 + CC(Nc1ccc2c(c1)OCCn1cc(N3C(=O)OCC3C(F)F)nc1-2)C(N)=O",
    "system name": "MDA-MB-468 spheroids with HUVEC/MSC, viability",
    "unit of measure": "%",
    "viability, T/C": 90
  },
  {
    "compound": "CC(=O)c1c(C)c2cnc(Nc3ccc(N4CCNCC4)cn3)nc2n(C2CCCC2)c1=O + COc1c(OCCCN2CCOCC2)ccc2c3n(c(=NC(=O)c4cnc(N)nc4)nc12)CCN3",
    "system name": "MDA-MB-468 spheroids with HUVEC/MSC, viability",
    "unit of measure": "%",
    "viability, T/C": 85.7
  },
  {
    "compound": "Cn1ncnc1[C@H]1c2n[nH]c(=O)c3cc(F)cc(c23)N[C@@H]1c1ccc(F)cc1 + COc1c(OCCCN2CCOCC2)ccc2c3n(c(=NC(=O)c4cnc(N)nc4)nc12)CCN3",
    "system name": "MDA-MB-468 spheroids with HUVEC/MSC, viability",
    "unit of measure": "%",
    "viability, T/C": 79.7
  },
  {
    "compound": "CC(=O)c1c(C)c2cnc(Nc3ccc(N4CCNCC4)cn3)nc2n(C2CCCC2)c1=O + CC(Nc1ccc2c(c1)OCCn1cc(N3C(=O)OCC3C(F)F)nc1-2)C(N)=O",
    "system name": "MDA-MB-468 spheroids with HUVEC/MSC, viability",
    "unit of measure": "%",
    "viability, T/C": 105
  }
]
